Test: DNDI: Solubility, 24 hour, 20 mM Citrate - pH 3, 37C
Assay type: physicochemical
Conditions: 20 mM citrate buffer, read-out: Equilibrium
recorded.endpoint: solubility thermodynamic at 24 h (µg/mL)
Report the value in µg/mL with no unit label.

// query Dear colleague, I am looking for the recorded solubility thermodynamic at 24 h of the following compound: FC(F)(F)c1ccc(N(c2cccnc2)C2CCN(c3ccc(C(F)(F)F)cn3)CC2)cc1
// result 53.1

###

Test: DNDI: Solubility in phosphate buffer at pH 6.5 determined by nephelometry
recorded.endpoint: log10 of solubility kinetic (log10 of the value in µg/mL)
Record value = log10 of solubility kinetic given in µg/mL.

Examples from the recorded data:
compound	numeric.value
FC(F)(F)c1ccc(N2CCC(N(c3ccc(C(F)(F)F)cc3)c3cncnc3)CC2)cc1	0.49
CC(=O)C(C)N1CCC(N(c2ccc(C(F)(F)F)cc2)c2cccnc2)CC1 (configuration not stated)	0.80
CCC(C(C)O)N1CCC(N(c2ccc(C(F)(F)F)cc2)c2cccnc2)CC1 (configuration not stated)	1.40
FC(F)(F)c1ccc(N(c2cccnc2)C2CCN(Cc3cccc(C(F)(F)F)c3)CC2)cc1	0.49

// query # query: log10 of solubility kinetic of entry Cc1ncsc1C(=O)N1CCC(N(c2ccc(C(F)(F)F)cc2)c2cccnc2)CC1
// result 1.10

// query Would you kindly share the measured log10 of solubility kinetic for CC(C)C(O)CN1CCC(N(c2ccc(C(F)(F)F)cc2)c2cccnc2)CC1 (configuration not stated) ?
// result 1.40

###

Assay: DNDI: Stability, 4 hour
Type: ADME, tissue-based
Conditions: rat, blood
recorded.endpoint: remaining at 4 h (%)
Write the number in % without appending the unit.

// query Name the reported remaining at 4 h value associated with the molecule FC(F)(F)c1ccc(N(c2cccnc2)C2CCN(c3ccc(C(F)(F)F)cn3)CC2)cc1
// result 115

###

Biological target: UniProtKB P10635
Sequence (P10635 whole entry): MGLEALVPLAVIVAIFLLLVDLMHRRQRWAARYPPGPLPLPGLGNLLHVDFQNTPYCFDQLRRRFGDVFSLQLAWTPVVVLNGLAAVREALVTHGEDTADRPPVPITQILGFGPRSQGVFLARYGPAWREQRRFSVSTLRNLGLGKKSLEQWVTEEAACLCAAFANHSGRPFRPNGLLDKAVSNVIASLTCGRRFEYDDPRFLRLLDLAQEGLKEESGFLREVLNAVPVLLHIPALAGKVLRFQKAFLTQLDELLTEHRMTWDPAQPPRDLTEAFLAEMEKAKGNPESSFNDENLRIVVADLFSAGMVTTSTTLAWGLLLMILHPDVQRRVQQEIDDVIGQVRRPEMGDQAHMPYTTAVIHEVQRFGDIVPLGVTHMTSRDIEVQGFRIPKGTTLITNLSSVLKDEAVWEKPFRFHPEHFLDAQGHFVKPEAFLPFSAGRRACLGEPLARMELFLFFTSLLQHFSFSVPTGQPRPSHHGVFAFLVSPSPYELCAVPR
recorded.endpoint: IC50

// query Which measured IC50 belongs to FC(F)(F)c1ccc(N(c2cccnc2)C2CCN(c3ccc(C(F)(F)F)cn3)CC2)cc1 , tested on UniProtKB P10635?
// result > 20 µM

###

Assay: in vitro
Conditions: human, microsomes, CLint
recorded.endpoint: log10(microsomal CLint) (log10 of the value in µL/min/mg)
Form field - Quantity: microsomal CLint; Unit: µL/min/mg; Scale: log10

The cases that follow already have their log10(microsomal CLint) on record.
molecule	numeric.value
COc1ccc(CN2CCC(N(c3ccc(C(F)(F)F)cc3)c3cccnc3)CC2)cc1	1.75
CC(O)C(C)N1CCC(N(c2ccc(C(F)(F)F)cc2)c2cccnc2)CC1 (configuration not stated)	1.38
Cc1ccccc1CN1CCC(N(c2ccc(C(F)(F)F)cc2)c2cccnc2)CC1	2.09
CCC(C(C)O)N1CCC(N(c2ccc(C(F)(F)F)cc2)c2cccnc2)CC1 (configuration not stated)	1.68
FC(F)(F)c1ccc(N(c2cccnc2)C2CCN(C(c3ccccc3)C(F)(F)F)CC2)cc1 (configuration not stated)	1.44
CC(C)(O)CN1CCC(N(c2ccc(C#N)cc2)c2cccnc2)CC1	1.09

// query I would be grateful if you could share the reported log10(microsomal CLint) for CCC(C(C)=O)N1CCC(N(c2ccc(C(F)(F)F)cc2)c2cccnc2)CC1 (configuration not stated) .
// result 2.19

// query What value of measured log10(microsomal CLint) is listed for FC(F)(F)c1ccc(N(c2cccnc2)C2CCN(Cc3ccccc3C(F)(F)F)CC2)cc1 ?
// result 1.97

// query # lookup: log10(microsomal CLint) of FC(F)(F)c1ccc(N(c2cccnc2)C2CCN(Cc3cccc(C(F)(F)F)c3)CC2)cc1
// result 1.82

// query What does the record list as log10(microsomal CLint) for CC(C)(F)CN1CCC(N(c2ccc(C(F)(F)F)cc2)c2cccnc2)CC1 ?
// result 2.14

// query # get_value(readout='log10(microsomal CLint)', item= CC(C)C(O)CN1CCC(N(c2ccc(C(F)(F)F)cc2)c2cccnc2)CC1 (configuration not stated) )
// result 1.76

// query I'd like to know its log10(microsomal CLint). The molecule in question is CC(=O)C(C)N1CCC(N(c2ccc(C(F)(F)F)cc2)c2cccnc2)CC1 (configuration not stated)
// result 1.91

###

Assay: DNDI: Lipophilicity (gLogD) at pH 3
Settings: buffer, pH 3, logD
We begin with a simple list: items and their reported chromatographic logD.

compound	chromatographic logD
Cc1ccccc1CN1CCC(N(c2ccc(C(F)(F)F)cc2)c2cccnc2)CC1	2
FC(F)(F)c1ccc(N(c2cccnc2)C2CCN(C(c3ccccc3)C(F)(F)F)CC2)cc1 (configuration not stated)	> 5.3
FC(F)(F)c1ccc(N(c2cccnc2)C2CCN(Cc3ccccc3C(F)(F)F)CC2)cc1	2.7
CC(C)(O)CN1CCC(N(c2ccc(C#N)cc2)c2cccnc2)CC1	0.7
CC(C)C(O)CN1CCC(N(c2ccc(C(F)(F)F)cc2)c2cccnc2)CC1 (configuration not stated)	1.6
CCC(C(C)O)N1CCC(N(c2ccc(C(F)(F)F)cc2)c2cccnc2)CC1 (configuration not stated)	1.6

// query Fill blank: measured chromatographic logD of the compound COc1ccc(CN2CCC(N(c3ccc(C(F)(F)F)cc3)c3cccnc3)CC2)cc1 is ____.
// result 2

###

Assay: DNDI: Protein binding in rat plasma
Format: ADME, cell-free
Conditions: read-out: % bound
recorded.endpoint: fraction unbound

// query What fraction unbound value was documented for this molecule, FC(F)(F)c1ccc(N(c2cccnc2)C2CCN(c3ccc(C(F)(F)F)cn3)CC2)cc1 ?
// result < 0.001

###

Assay: DNDI: Lipophilicity (eLogD) at pH 5
Format: physicochemical
Conditions: buffer
recorded.endpoint: chromatographic logD

// query What does the record list as chromatographic logD for FC(F)(F)c1ccc(N(c2cccnc2)C2CCN(c3ccc(C(F)(F)F)cn3)CC2)cc1 ?
// result > 6.07

###

Assay: DNDI: Lipophilicity (gLogD) at pH 7.4
Conditions: buffer, pH 7.4
label 1 if chromatographic logD is below 4. label 0 if not; exact matches included in label 0.

Solved entries:
compound.string	assigned.label
FC(F)(F)c1ccc(N(c2cccnc2)C2CCN(c3ccc(Cl)cc3)CC2)cc1	label 0
FC(F)(F)c1ccc(N(c2cccnc2)C2CCN(c3ccc(C(F)(F)F)cn3)CC2)cc1	label 0
Cc1ncsc1C(=O)N1CCC(N(c2ccc(C(F)(F)F)cc2)c2cccnc2)CC1	label 1
CN(C)S(=O)(=O)c1cccc(N2CCC(N(c3ccc(C#N)cc3)c3cccnc3)CC2)c1	label 1
CS(=O)(=O)c1ccc(N2CCC(N(c3ccc(C#N)cc3)c3cccnc3)CC2)cc1	label 1
N#Cc1ccc(N(c2cccnc2)C2CCN(c3ccc(F)c(F)c3)CC2)cc1	label 0

// query Determine if N#Cc1cc(C(F)(F)F)ccc1N1CCC(N(c2ccc(C(F)(F)F)cc2)c2cccnc2)CC1 shows chromatographic logD strictly lower than 4.
// result label 0

// query Threshold test, chromatographic logD < 4: CC(C)(C)C(=O)N1CCC(N(c2ccc(C(F)(F)F)cc2)c2cccnc2)CC1
// result label 0

// query Quick check: does FC(F)(F)c1ccc(N(c2cccnc2)C2CCN(c3ncccn3)CC2)cc1 have chromatographic logD under 4?
// result label 0

// query Decide: chromatographic logD of O=C(C1CC1)N1CCC(N(c2ccc(Cl)cc2)c2cccnc2)CC1 strictly below 4?
// result label 1

// query Hi there! Is chromatographic logD for CN(C)S(=O)(=O)c1cccc(N2CCC(N(c3ccc(C(F)(F)F)cc3)c3cccnc3)CC2)c1 below 4, do you know?
// result label 0

// query Answer whether the compound Cc1noc(C)c1C(=O)N1CCC(N(c2ccc(C(F)(F)F)cc2)c2cccnc2)CC1 has chromatographic logD strictly less than 4
// result label 1

// query Is chromatographic logD of O=C(c1ccccc1C(F)(F)F)N1CCC(N(c2ccc(C(F)(F)F)cc2)c2cccnc2)CC1 strictly below 4?
// result label 0

// query Strictly below 4: is that where chromatographic logD of O=C(c1ccccc1)N1CCC(N(c2ccc(Cl)cc2)c2cccnc2)CC1 sits?
// result label 1

// query Hello, I'm reviewing records and need to know if chromatographic logD of N#Cc1ccc(N2CCC(N(c3ccc(C(F)(F)F)cc3)c3cccnc3)CC2)cc1 is below 4. Could you check?
// result label 0

// query Find out if reported chromatographic logD for CS(=O)(=O)N1CCC(N(c2ccc(Cl)cc2)c2cccnc2)CC1 is less than 4
// result label 1

// query Does FC(F)(F)c1ccc(N2CCC(N(c3ccc(C(F)(F)F)cc3)c3cncnc3)CC2)cc1 have chromatographic logD strictly under 4?
// result label 0

###

Assay: DNDI: Solubility, 24 hour, SGF, 37C
Type: physicochemical
Details: read-out: Equilibrium
recorded.endpoint: solubility thermodynamic at 24 h (µg/mL)
Enter your answer as a number in µg/mL; do not include the unit.

// query Return reported solubility thermodynamic at 24 h; argument: FC(F)(F)c1ccc(N(c2cccnc2)C2CCN(c3ccc(C(F)(F)F)cn3)CC2)cc1
// result 9680
